# Target Or System: Mannose-6-phosphate isomerase (Homo sapiens) (UniProt P34949)
# Sequence (P34949 whole entry, looked up): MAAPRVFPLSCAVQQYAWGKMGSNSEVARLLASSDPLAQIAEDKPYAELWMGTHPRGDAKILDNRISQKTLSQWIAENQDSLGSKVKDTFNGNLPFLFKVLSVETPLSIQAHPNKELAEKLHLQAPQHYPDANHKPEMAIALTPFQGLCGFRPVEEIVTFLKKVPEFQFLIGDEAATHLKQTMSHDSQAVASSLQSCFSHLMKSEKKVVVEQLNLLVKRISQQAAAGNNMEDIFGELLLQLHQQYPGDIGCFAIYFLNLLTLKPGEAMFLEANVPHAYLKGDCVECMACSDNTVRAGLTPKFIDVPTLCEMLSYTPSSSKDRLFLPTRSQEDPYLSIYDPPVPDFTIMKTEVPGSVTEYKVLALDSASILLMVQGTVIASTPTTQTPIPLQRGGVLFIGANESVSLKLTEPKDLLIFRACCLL
# Test Protocol: MPI inhibition at elevated mannose 6-phosphate – biochemical, fluorescence intensity, high mannose 6-phosphate, primary screen (AID 1220)
# Study Conditions: recombinant PMI enzyme, coupled fluorescence intensity; at 20 µM; hits give high values
The campaign covered roughly 190,000 compounds. About 1,300 (0.68%) were called active. This excerpt belongs to a sample that is enriched for actives.
Assay Metric: inhibition (%)

{"Molecule": "COc1ccc(C2C3=C(Nc4ncnn42)c2ccccc2CC3)cc1OC (stereo unspecified)", "Assay Metric": "inhibition", "Reported": 38.6}
{"Molecule": "CN1CCc2c(sc3c2C(=O)NC(c2ccccc2)N3)C1 (stereo unspecified)", "Assay Metric": "inhibition", "Reported": 33}
{"Molecule": "O=C1COc2ccc3ccccc3c2CN1", "Assay Metric": "inhibition", "Reported": -0.8}
{"Molecule": "O=C1OCC(CO)(CO)N=C1NNc1cc(Cl)ccc1Cl", "Assay Metric": "inhibition", "Reported": -81.3}
{"Molecule": "COc1cc(CNCC2CCCO2)ccc1OCC(N)=O (stereo unspecified)", "Assay Metric": "inhibition", "Reported": -5.5}
{"Molecule": "COc1cc(C2C3=C(Nc4ncnn42)c2ccccc2CC3)cc(OC)c1OC (stereo unspecified)", "Assay Metric": "inhibition", "Reported": 51.9}

---

# Target Or System: Mannose-6-phosphate isomerase (Homo sapiens)
# Test Protocol: MPI inhibition at elevated mannose 6-phosphate – biochemical, fluorescence intensity, high mannose 6-phosphate, primary screen (AID 1220)
# Study Conditions: recombinant PMI enzyme, coupled fluorescence intensity; at 20 µM; hits give high values
The whole screen tested about 190,000 compounds, of which about 1,300 (0.68%) were called active. For the sample, actives were picked, then their nearest neighbours and some compounds at random.
Measured inhibition, listed per entry for reference.
Assay Metric: inhibition (%)

{"Molecule": "Oc1ccc(/C=N/NC(=S)Nc2cccnc2)cc1O", "Assay Metric": "inhibition", "Reported": 6.3}
{"Molecule": "COc1ccc(Cc2nc(-c3ccc(-n4cccc4)cc3)no2)cc1", "Assay Metric": "inhibition", "Reported": -0.1}
{"Molecule": "CCOC(=O)C(C(=O)OCC)c1cc(Br)c2noc3c2c1C(=O)c1ccccc1-3", "Assay Metric": "inhibition", "Reported": 52.1}
{"Molecule": "COc1ccc(/C(C)=N\\NS(=O)(=O)c2ccccc2)cc1OC", "Assay Metric": "inhibition", "Reported": 4.4}
{"Molecule": "CCOC(=O)C(NC(=O)NC1CCCCC1)(c1ccccc1)C(F)(F)F (configuration not stated)", "Assay Metric": "inhibition", "Reported": -5.1}
{"Molecule": "Cc1ccccc1CN(C)CC(=O)Nc1c(C)cccc1C(C)C", "Assay Metric": "inhibition", "Reported": 0.5}
{"Molecule": "CCOC(=O)c1c(C)nc2c(c1-c1ccccc1)C(=O)c1ccccc1-2", "Assay Metric": "inhibition", "Reported": -34.4}
{"Molecule": "Cc1cc(C)c(S(=O)(=O)Nc2cccc(S(=O)(=O)NC3=NCCC3)c2)c(C)c1", "Assay Metric": "inhibition", "Reported": -4.4}
{"Molecule": "COc1ccccc1-n1c(C)c2c(OC)cccc(=O)c2c1C", "Assay Metric": "inhibition", "Reported": 54.7}
{"Molecule": "Nc1nn2c(-c3ccccc3)cc(=O)[nH]c2c1N=Nc1ccc(O)cc1", "Assay Metric": "inhibition", "Reported": 55.4}
{"Molecule": "CN1C=CC2=C(C#N)C(N)C(C#N)(C#N)C(c3ccccc3)C2C1 (configuration not stated)", "Assay Metric": "inhibition", "Reported": 18.5}
{"Molecule": "COc1cccc(=O)c2c(C)n(-c3cc(C)cc(C)c3)c(C)c12", "Assay Metric": "inhibition", "Reported": 29.9}
{"Molecule": "CC(=C1C2C=CC1C1C(=O)NC(=O)C21)c1ccccc1 (configuration not stated)", "Assay Metric": "inhibition", "Reported": 3.8}
{"Molecule": "CCOC(=O)CNC(=O)C1(c2ccccc2)CCCC1", "Assay Metric": "inhibition", "Reported": 3.8}
{"Molecule": "Cc1[nH]c2ccccc2c1CCNC(=O)c1c(N)no[n+]1[O-]", "Assay Metric": "inhibition", "Reported": 15.2}
{"Molecule": "O=C1c2ccccc2-c2onc3c(Oc4ccccc4)cc(O)c1c23", "Assay Metric": "inhibition", "Reported": -4.7}
{"Molecule": "CCCCNC(=O)c1onc(CSc2cc(C)cc(C)c2)c1C(=O)O", "Assay Metric": "inhibition", "Reported": -4}
{"Molecule": "CCOC(=O)C(NC(=O)Nc1ccc(C(N)=O)cc1)(c1ccccc1)C(F)(F)F (configuration not stated)", "Assay Metric": "inhibition", "Reported": -6.9}
{"Molecule": "CCN1C=CC2=C(C#N)C(N)C(C#N)(C#N)C(c3ccccc3C(F)(F)F)C2C1 (configuration not stated)", "Assay Metric": "inhibition", "Reported": 5.1}
{"Molecule": "Cc1c(Cl)c([N+](=O)[O-])nn1CCCC(=O)N1CCN(c2ccccc2)CC1", "Assay Metric": "inhibition", "Reported": -19.1}
{"Molecule": "O=C(NC1CCN(S(=O)(=O)c2ccccc2)CC1)C1CCCCC1", "Assay Metric": "inhibition", "Reported": 7.7}
{"Molecule": "COc1cccc(-n2c(C)c3c(OC)cccc(=O)c3c2C)c1", "Assay Metric": "inhibition", "Reported": 61}
